# measured-on: human CB2 receptors (Homo sapiens)
# Construct: expressed in transfected cells; host or cells: CHO cells
# Sequence (P34972 whole entry): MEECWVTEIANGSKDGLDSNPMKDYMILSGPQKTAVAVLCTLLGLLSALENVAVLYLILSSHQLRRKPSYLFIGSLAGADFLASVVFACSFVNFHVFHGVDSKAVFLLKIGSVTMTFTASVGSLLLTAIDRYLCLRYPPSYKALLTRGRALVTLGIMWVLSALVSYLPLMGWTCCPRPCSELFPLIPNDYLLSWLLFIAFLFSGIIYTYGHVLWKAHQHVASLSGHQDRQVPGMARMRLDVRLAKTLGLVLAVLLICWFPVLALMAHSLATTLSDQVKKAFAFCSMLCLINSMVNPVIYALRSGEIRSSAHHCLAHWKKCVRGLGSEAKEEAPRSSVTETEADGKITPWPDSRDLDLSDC
# procedure-details: cAMP assay
# Type: cell-based
Quick list: log10(EC50) per entry.
Log scale reminder: EC50 in nM, then log10 taken.

Worked set:
INSERT INTO measurements (molecule, recorded_number) VALUES
  ('O=C(NC12CC3CC(CC(O)(C3)C1)C2)c1ccc(N2CC(F)(F)C2)c(OCC2CC2)n1 [Example 21]', 1.91),
  ('CC(C)(Cc1nnc(-c2ccccc2)o1)NC(=O)c1ccc(Nc2ccc(Cl)cc2Cl)c(Cl)n1 [Example 9]', 1.56),
  ('CC(C)(CO)c1cc(NC(=O)c2cnc(C3CC3)c(OCC3CC3)n2)on1 [Example 25]', 1.71),
  ('CC(C)(Cc1nnc(-c2ccccc2)o1)NC(=O)c1ccc(C2CC2)c(-c2ccc(Cl)cc2)n1 [Example 10]', 2.42),
  ('CC(C)(Cc1nnc(-c2ccccc2)o1)NC(=O)c1cccc(-c2cccc(Cl)c2)n1 [Example 6]', 2.26),
  ('NC(=O)[C@H]1CSCCN1C(=O)c1cnc(C2CC2)c(OCC2CC2)n1 [Example 23]', 2.77),
  ('COCCOCC(C)(C)c1cc(NC(=O)c2ccc(N3CC(F)(F)C3)c(OCC3CC3)n2)on1 [Example 16]', 2.34);

Prompt: log10(EC50) lookup needed for CC(C)(COC1CCCCO1)c1cc(NC(=O)c2cnc(C3CC3)c(OCC3CC3)n2)on1 (centres unmarked) [Example 24] , thanks.
Response: 1.88
